test: Initial pharmacokinetic studies in mice; assay type: in vivo; conditions: mouse, plasma, 16 mg/kg i.p. or s.c. (10% DMSO/40% captisol), 25 mg/kg i.p., s.c., oral (5% DMSO/20% gamma-cyclodextrin)
endpoint: half-life

query: Endpoint output: half-life of `Cc1ccc(S(=O)(=O)Cc2nc(-c3ccc(C(=O)NCc4cccnc4)cc3)oc2C)cc1` . Value?
result: ~1.5 h

The origin of these recorded values is patent US9150559B2.
